FYI, the data here is from the supplement of paper PMC11208160.

Would you kindly list recombinant barcode read abundance (log10) for each of these sequences?
assay-procedure: recombinant barcode read abundance after kanamycin selection (control-corrected) (log10(CPM+1)); higher = more efficient recombination; sequences stand for … in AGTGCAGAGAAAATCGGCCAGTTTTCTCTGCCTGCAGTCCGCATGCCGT…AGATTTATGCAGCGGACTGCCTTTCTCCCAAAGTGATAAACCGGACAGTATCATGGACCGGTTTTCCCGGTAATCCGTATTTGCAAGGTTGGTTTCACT; site = the 11-nt target;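 further: IS621 recombinase and bridge RNA in Escherichia coli cells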
One number for each entry.

Take a look at these entries with their results.
INSERT INTO results (monomer_sequence, data_value) VALUES
  ('AAAGGGACTTGGGTTCTAACCTGTTGCCT (site AAGGAGACTAG)', 0.191),
  ('TTGGACACTTGGGTTCTAACCTGTTGCCT (site TTGGGCACTAG)', 0.327),
  ('TGGCAGTCTTGGGTTCTAACCTGTTGCCT (site TGGCAGTCTAG)', 0.413);

Below are some sequences; for each one, tell me its recombinant barcode read abundance (log10).
1. CGGAAATCTTGGGTTCTAACCTGTTGCCT (site CGTAAATCTAG)
2. GCGTATCCTTGGGTTCTAACCTGTTGCCT (site GCGTATCCTAG)
3. GAACGACCTTGGGTTCTAACCTGTTGCTG (site GAACGACCTCA)
4. TAGCATGCTTGGGTTCTAACCTGTTGCAT (site TAGCATGCTCT)
5. CTTACTACTTGGGTTCTAACCTGTTGCCA (site CTTACTACTTG)

Response given:
[0.0515, 0.93, 1.16, 0.204, 0.0598]

Batch of 3 sequences: report recombinant barcode read abundance (log10) for each.
1. ACTCTGTCTTGGGTTCTAACCTGTTGCTT (site ACCCTATCTAA)
2. TAGTCTGCTTGGGTTCTAACCTGTTGCCT (site TAGGCTGCTAG)
3. TACGGTCCTTGGGTTCTAACCTGTTGCTT (site TACGGTCCTAA)

Response given:
1: 0.124; 2: 0.0685; 3: 1.08
